# tested.system: T1, recombinant human CD123-Fc (human, UniProt P26951 19-305)
# T1 construct: not shown: Fc part of CD123-Fc
# T1 sequence: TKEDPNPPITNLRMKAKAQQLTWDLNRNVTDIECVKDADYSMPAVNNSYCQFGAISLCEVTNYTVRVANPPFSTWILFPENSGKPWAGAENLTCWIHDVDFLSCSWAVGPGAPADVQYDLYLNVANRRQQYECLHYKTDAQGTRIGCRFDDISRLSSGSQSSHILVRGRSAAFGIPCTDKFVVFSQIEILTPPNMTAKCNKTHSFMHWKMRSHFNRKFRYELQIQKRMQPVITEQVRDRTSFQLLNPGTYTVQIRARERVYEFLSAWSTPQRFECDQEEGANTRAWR
# measurement.protocol: phage ELISA, captured CD123-Fc
Record form. Attribute: ELISA_avg. Fill in for each entry.
Answers are plain numbers, in ratio A450 target/IgG1-Fc.

Example results:
• SEQ ID NO: 393 (designed binder, D domain, on phage) MGSWWEFEERLWAIDYRLHALGGSEAELAAFEKEIAAFESELQAYKGKGNPEVEMLRSWAAEIRALLQAYRHN = 4.1
• SEQ ID NO: 361 (designed binder, D domain, on phage) MGSWDEFEQRLIAIEERLFALGGSEAELAAFEKEIAAFESELQAYKGKGNPEVEWLREEAAVIRKYLQAYRHN = 5.9
• SEQ ID NO: 614 (designed binder, D domain, on phage) MGSWVEFSNRLDAIWERLQALGGSEAELAYFEWEIAEFEWELQSYKGKGNPEVEALNAEADAIEWELEAYRHN = 5.1
• SEQ ID NO: 574 (designed binder, D domain, on phage) MGSWYEFEDRLAAIWDRLNALGGSEAELAIFEWDIAWFEEGLQEYKGKGNPEVEALKHEASAIQTELFAYRHN = 6.4
• SEQ ID NO: 380 (designed binder, D domain, on phage) MGSWFEFEDRLEAIYQRLDALGGSEAELAAFEKEIAAFESELQAYKGKGNPEVEWLRDEAAWIRSDLQAYRHN = 5.5
• SEQ ID NO: 622 (designed binder, D domain, on phage) MGSWLEFETRLHAIDERLWALGGSEAELAEFEEHIAWFEEDLQFYKGKGNPEVEALDFEADAIGWELWAYRHN = 4.6
• SEQ ID NO: 458 (designed binder, D domain, on phage) MGSWDLFKWELAEIKLGLEALGGSEAELAEFEYDIAWFEEDLQDYKGKGNPEVEALRKEAAAIRDELQAYRHN = 3.4
• SEQ ID NO: 429 (designed binder, D domain, on phage) MGSWFEFYMRLDAIYDRLTALGGSEAELAAFEKEIAAFESELQAYKGKGNPEVERLRTFAANIRKELQAYRHN = 13.1

// below: ELISA_avg requested for another binder
Give reported ELISA_avg value for SEQ ID NO: 329 (designed binder, D domain, on phage) MGSWVEFHDRLEAIEDRLYALGGSEAELAAFEKEIAAFESELQAYKGKGNPEVEWLREDAAYIRSILQAYRHN
4.6
